Molecular target: plasma kallikrein (pKA) (Homo sapiens, UniProt P03952)
Sequence (P03952 391-638 limits assumed): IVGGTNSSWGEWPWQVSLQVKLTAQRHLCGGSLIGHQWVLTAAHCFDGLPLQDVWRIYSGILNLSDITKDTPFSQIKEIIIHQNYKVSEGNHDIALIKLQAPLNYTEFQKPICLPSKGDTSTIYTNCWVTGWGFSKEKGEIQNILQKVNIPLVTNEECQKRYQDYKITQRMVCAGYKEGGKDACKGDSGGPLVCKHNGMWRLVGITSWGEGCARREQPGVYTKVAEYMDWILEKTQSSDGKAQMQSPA
Sequence (P03952 20-390 partner limits assumed): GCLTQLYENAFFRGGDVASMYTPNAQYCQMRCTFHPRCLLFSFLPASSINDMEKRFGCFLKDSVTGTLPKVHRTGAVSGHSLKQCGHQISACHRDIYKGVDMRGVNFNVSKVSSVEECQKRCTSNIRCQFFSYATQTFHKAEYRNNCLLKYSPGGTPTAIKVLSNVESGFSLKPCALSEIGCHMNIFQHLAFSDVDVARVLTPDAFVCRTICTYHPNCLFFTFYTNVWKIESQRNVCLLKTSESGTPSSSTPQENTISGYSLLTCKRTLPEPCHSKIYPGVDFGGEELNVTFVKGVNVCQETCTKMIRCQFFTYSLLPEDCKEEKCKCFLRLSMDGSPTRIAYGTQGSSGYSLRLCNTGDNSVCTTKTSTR
Assay: Inhibition of human plasma kallikrein (measured Ki taken as KD), yeast-expressed purified proteins
Type: biochemical
Parameters: Hydrolysis of the Arg371 -Ile372 peptide bond yields a two-chain proteinase joined by a disulfide bond
Settings: stated as 'probably less than'; preliminary measurements; read-out: Ki for plasma kallikrein (pKA), probable bound
pKi: −log10 of the molar value.
READOUT_LABEL: pKi

KK2/#11: second-library LACI-K1 variant Kunitz domain, SEQ ID NO. 22 (MHSFCAFKADDGPCRAAHPRWFFNIFTRQCEEFSYGGCGGNQNRFESLEECKKMCTRD): > 10.00

Query :: Entry KKII/3#6: lead pKA inhibitor, LACI-K1 variant Kunitz domain, SEQ ID NO. 10 (MHSFCAFKADDGHCKANHQRFFFNIFTRQCEEFSYGGCGGNQNRFESLEECKKMCTRD) : reported pKi = ?
Result :: > 9.30

Query :: Entry KK2/#13: second-library LACI-K1 variant Kunitz domain, SEQ ID NO. 19 (MHSFCAFKADGGRCRGAHPRWFFNIFTRQCEEFSYGGCGGNQNRFESLEECKKMCTRD) : reported pKi = ?
Result :: > 10.00

----------
Let's look at some substances and their measured Ki.
Target: plasma kallikrein (pKA) (Homo sapiens, UniProt P03952)
Experiment: Inhibition of human plasma kallikrein (measured Ki taken as KD), yeast-expressed purified proteins
Assay type: biochemical
Parameters: Hydrolysis of the Arg371 -Ile372 peptide bond yields a two-chain proteinase joined by a disulfide bond
Details: preliminary measurements; not corrected for substrate competition; read-out: Ki for plasma kallikrein (pKA)

Below, each entry is followed by its recorded Ki result.
KK2/#11: second-library LACI-K1 variant Kunitz domain, SEQ ID NO. 22 (MHSFCAFKADDGPCRAAHPRWFFNIFTRQCEEFSYGGCGGNQNRFESLEECKKMCTRD): < 0.3 nM
KK2/#13: second-library LACI-K1 variant Kunitz domain, SEQ ID NO. 19 (MHSFCAFKADGGRCRGAHPRWFFNIFTRQCEEFSYGGCGGNQNRFESLEECKKMCTRD): < 0.3 nM

Query :: Entry KKII/3#6: lead pKA inhibitor, LACI-K1 variant Kunitz domain, SEQ ID NO. 10 (MHSFCAFKADDGHCKANHQRFFFNIFTRQCEEFSYGGCGGNQNRFESLEECKKMCTRD) : reported Ki = ?
Result :: ~0.3 nM

----------
Let's look at some substances and their measured Fraction Bound.
Molecular target: human plasma Kallikrein (Homo sapiens, UniProt P03952)
Construct: Hydrolysis of the Arg371 -Ile372 peptide bond yields a two-chain proteinase joined by a disulfide bond; purchased Calbiochem 420302
Sequence (P03952 391-638 limits assumed): as the sequence (P03952 391-638 limits assumed) above
Sequence (P03952 20-390 partner limits assumed): as the sequence (P03952 20-390 partner limits assumed) above
Experiment: Binding of display-phage to kallikrein-agarose beads (Table 8)
Conditions: pfu's eluted as a fraction of the input number (10^10 pfu's)

KKI/3(b): LACI-K1 variant Kunitz domain, phase I selectant, SEQ ID NO. 16 (MHSFCAFKADDGPCKAIHLRFFFNIFTRQCEEFIYGGCEGNQNRFESLEECKKMCTRD): 2.2 × 10^-3
LACI-K1: first Kunitz domain of human LACI (residues 50 to 107), parental molecule, SEQ ID NO. 3 (MHSFCAFKADDGPCKAIMKRFFFNIFTRQCEEFIYGGCEGNQNRFESLEECKKMCTRD) [reference compound]: 4.2 × 10^-6
KKI/3(a): LACI-K1 variant Kunitz domain, phase I selectant, SEQ ID NO. 15 (MHSFCAFKADDGRCKGAHLRFFFNIFTRQCEEFIYGGCEGNQNRFESLEECKKMCTRD): 3.2 × 10^-3
KKII/3#6: lead pKA inhibitor, LACI-K1 variant Kunitz domain, SEQ ID NO. 10 (MHSFCAFKADDGHCKANHQRFFFNIFTRQCEEFSYGGCGGNQNRFESLEECKKMCTRD): 8.7 × 10^-3

Next up:
Query :: Entry KKII/3#5: LACI-K1 variant Kunitz domain, SEQ ID NO. 9 (MHSFCAFKADDGHCKASLPRFFFNIFTRQCEEFIYGGCGGNQNRFESLEECKKMCTRD) : reported Fraction Bound = ?
Result :: 3.9 × 10^-3

----------
Biological target: human plasma Kallikrein (Homo sapiens, UniProt P03952)
Construct: Hydrolysis of the Arg371 -Ile372 peptide bond yields a two-chain proteinase joined by a disulfide bond; purchased Calbiochem 420302
Assay: Binding of display-phage to kallikrein-agarose beads (Table 8)
Conditions: fraction bound relative to the parental display-phage, LACI-K1
Excerpt: This method is highly sensitive because the genetic packages can be amplified. We obtain at least semiquantitative values for the binding constants by use of a pH step gradient. […] Any other suitable method of measuring protein binding may be used. […]
Let's look at some substances and their measured Relative Binding.
Answer field: number only, no words.

KKI/3(b): LACI-K1 variant Kunitz domain, phase I selectant, SEQ ID NO. 16 (MHSFCAFKADDGPCKAIHLRFFFNIFTRQCEEFIYGGCEGNQNRFESLEECKKMCTRD): 524
KKII/3#6: lead pKA inhibitor, LACI-K1 variant Kunitz domain, SEQ ID NO. 10 (MHSFCAFKADDGHCKANHQRFFFNIFTRQCEEFSYGGCGGNQNRFESLEECKKMCTRD): 2071
KKI/3(a): LACI-K1 variant Kunitz domain, phase I selectant, SEQ ID NO. 15 (MHSFCAFKADDGRCKGAHLRFFFNIFTRQCEEFIYGGCEGNQNRFESLEECKKMCTRD): 761

Next up:
Query :: Entry KKII/3#5: LACI-K1 variant Kunitz domain, SEQ ID NO. 9 (MHSFCAFKADDGHCKASLPRFFFNIFTRQCEEFIYGGCGGNQNRFESLEECKKMCTRD) : reported Relative Binding = ?
Result :: 928
